Cited source for all entries: patent US8822517B2

target: UniProt:P50406; assay: Binding assay 5-HT6 (h), [3H]LSD, CHO cells; design: expressed in transfected cells; host or cells: CHO cells; conditions: read-out: 5-HT6
Sequence (P50406 whole entry): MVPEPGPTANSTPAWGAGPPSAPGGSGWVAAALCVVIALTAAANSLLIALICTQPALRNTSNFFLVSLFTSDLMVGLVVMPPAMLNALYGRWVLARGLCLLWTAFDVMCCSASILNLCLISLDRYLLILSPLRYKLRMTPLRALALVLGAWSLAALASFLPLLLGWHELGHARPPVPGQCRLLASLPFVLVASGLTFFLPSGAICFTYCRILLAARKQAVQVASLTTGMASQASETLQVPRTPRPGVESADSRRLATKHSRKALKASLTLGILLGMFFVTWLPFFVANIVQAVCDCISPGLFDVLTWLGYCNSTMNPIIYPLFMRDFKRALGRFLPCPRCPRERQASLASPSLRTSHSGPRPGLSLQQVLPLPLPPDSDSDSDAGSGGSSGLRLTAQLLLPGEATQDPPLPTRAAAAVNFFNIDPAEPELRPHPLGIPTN
Each record here notes measured inhibition at 1 µM.

>  <Compound>
O=S(=O)(NCCCN1CCN(c2nsc3ccccc23)CC1)c1cnc2ccccn12 [Compound 76]

>  <Units symbol>
%

>  <inhibition at 1 µM>
70

$$$$
>  <Compound>
O=S(=O)(NCCCN1CCN(c2nsc3ccccc23)CC1)c1ccc(Cl)s1 [Compound 196]

>  <Units symbol>
%

>  <inhibition at 1 µM>
92

$$$$
>  <Compound>
O=S(=O)(NCCCCN1CCN(c2nsc3ccccc23)CC1)c1ccc(Cl)c(Cl)c1 [Compound 228]

>  <Units symbol>
%

>  <inhibition at 1 µM>
87

$$$$
>  <Compound>
N#Cc1ccc(S(=O)(=O)NCCCN2CCC(c3noc4cc(F)ccc34)CC2)cc1 [Compound 337]

>  <Units symbol>
%

>  <inhibition at 1 µM>
76

$$$$
>  <Compound>
Cc1[nH]c2ccc(Cl)cc2c1C1=CCN(CCCNS(=O)(=O)c2cccc(O)c2)CC1 [Compound 445]

>  <Units symbol>
%

>  <inhibition at 1 µM>
84

$$$$
>  <Compound>
O=S(=O)(NCCCCN1CCN(c2cccc3[nH]ccc23)CC1)c1csc2ccccc12 [Compound 32]

>  <Units symbol>
%

>  <inhibition at 1 µM>
23

$$$$
>  <Compound>
O=S(=O)(NCCCN1CCN(c2cccc3c2OCCO3)CC1)c1ccc(-c2ccccc2)cc1 [Compound 415]

>  <Units symbol>
%

>  <inhibition at 1 µM>
15

$$$$
>  <Compound>
O=S(=O)(NCCCN1CC=C(c2c[nH]c3ccc(F)cc23)CC1)c1cccc(O)c1 [Compound 437]

>  <Units symbol>
%

>  <inhibition at 1 µM>
47

$$$$
>  <Compound>
Cc1[nH]c2ccc(Cl)cc2c1C1=CCN(CCNS(=O)(=O)c2cccc3ccccc23)CC1 [Compound 447]

>  <Units symbol>
%

>  <inhibition at 1 µM>
106

$$$$
>  <Compound>
Cc1[nH]c2ccc(Cl)cc2c1C1=CCN(CCCNS(=O)(=O)c2cccc3ccccc23)CC1 [Compound 441]

>  <Units symbol>
%

>  <inhibition at 1 µM>
84

$$$$
>  <Compound>
O=S(=O)(NCCCN1CCC(c2noc3cc(F)ccc23)CC1)c1ccc(Cl)cc1 [Compound 328]

>  <Units symbol>
%

>  <inhibition at 1 µM>
87

$$$$
>  <Compound>
O=S(=O)(NCCCCN1CCN(c2noc3ccccc23)CC1)c1cccc(Cl)c1 [Compound 85]

>  <Units symbol>
%

>  <inhibition at 1 µM>
77

$$$$
>  <Compound>
O=S(=O)(NCCCCN1CCN(c2nsc3ccccc23)CC1)c1cccc(F)c1 [Compound 71]

>  <Units symbol>
%

>  <inhibition at 1 µM>
76

$$$$
>  <Compound>
O=S(=O)(NCCCCN1CCN(c2cccc3c2OCCO3)CC1)c1ccc(-c2ccccc2)cc1 [Compound 396]

>  <Units symbol>
%

>  <inhibition at 1 µM>
31

$$$$
>  <Compound>
O=S(=O)(NCCCCN1CCN(c2noc3ccccc23)CC1)c1ccc2c(c1)CCO2 [Compound 289]

>  <Units symbol>
%

>  <inhibition at 1 µM>
78

$$$$
>  <Compound>
O=c1[nH]c2cccc(N3CCN(CCCNS(=O)(=O)c4ccc(Cl)cc4)CC3)c2[nH]1 [Compound 425]

>  <Units symbol>
%

>  <inhibition at 1 µM>
5

$$$$
>  <Compound>
O=S(=O)(NCCCN1CCC(c2noc3cc(F)ccc23)CC1)c1ccc(Br)cc1 [Compound 330]

>  <Units symbol>
%

>  <inhibition at 1 µM>
83

$$$$
>  <Compound>
O=S(=O)(NCCCN1CCN(c2nsc3ccccc23)CC1)c1ccc(Cl)c(Cl)c1 [Compound 251]

>  <Units symbol>
%

>  <inhibition at 1 µM>
99

$$$$
>  <Compound>
COc1cccc(S(=O)(=O)NCCCN2CCN(c3nsc4ccccc34)CC2)c1 [Compound 255]

>  <Units symbol>
%

>  <inhibition at 1 µM>
68

$$$$
>  <Compound>
O=C1COc2c(cccc2N2CCN(CCCCNS(=O)(=O)c3ccc(F)cc3)CC2)N1 [Compound 428]

>  <Units symbol>
%

>  <inhibition at 1 µM>
33

$$$$
>  <Compound>
O=S(=O)(NCCCCN1CCC(c2noc3cc(F)ccc23)CC1)c1ccc(C(F)(F)F)cc1 [Compound 302]

>  <Units symbol>
%

>  <inhibition at 1 µM>
72

$$$$
>  <Compound>
O=S(=O)(NCCCCN1CCN(c2nsc3ccccc23)CC1)c1cccc(O)c1 [Compound 231]

>  <Units symbol>
%

>  <inhibition at 1 µM>
95

$$$$
>  <Compound>
O=S(=O)(NCCCN1CCC(c2noc3cc(F)ccc23)CC1)c1ccc(Cl)s1 [Compound 341]

>  <Units symbol>
%

>  <inhibition at 1 µM>
93

$$$$
>  <Compound>
O=S(=O)(NCCCN1CCN(c2nsc3ccccc23)CC1)c1cccc2scnc12 [Compound 267]

>  <Units symbol>
%

>  <inhibition at 1 µM>
95

$$$$
>  <Compound>
O=S(=O)(NCCCCN1CCC(c2noc3cc(F)ccc23)CC1)c1ccc(OC(F)(F)F)cc1 [Compound 304]

>  <Units symbol>
%

>  <inhibition at 1 µM>
78

$$$$
>  <Compound>
O=c1[nH]c2ccc(S(=O)(=O)NCCCCN3CCN(c4nsc5ccccc45)CC3)cc2o1 [Compound 4]

>  <Units symbol>
%

>  <inhibition at 1 µM>
87

$$$$
>  <Compound>
O=S(=O)(NCCCN1CCN(c2nsc3ccccc23)CC1)c1cc2ccccc2s1 [Compound 262]

>  <Units symbol>
%

>  <inhibition at 1 µM>
93

$$$$
>  <Compound>
O=S(=O)(NCCCCN1CCN(c2nsc3ccccc23)CC1)c1ccc(F)cc1 [Compound 225]

>  <Units symbol>
%

>  <inhibition at 1 µM>
74

$$$$
>  <Compound>
O=S(=O)(NCCCCN1CCN(c2noc3ccccc23)CC1)c1ccc(-c2ccccc2)cc1 [Compound 283]

>  <Units symbol>
%

>  <inhibition at 1 µM>
96

$$$$
>  <Compound>
Cc1[nH]c2ccc(Cl)cc2c1C1=CCN(CCNS(=O)(=O)c2cccc(Cl)c2)CC1 [Compound 452]

>  <Units symbol>
%

>  <inhibition at 1 µM>
108

$$$$
>  <Compound>
Cc1c(S(=O)(=O)NCCCCN2CCN(c3noc4ccccc34)CC2)sc2ccc(F)cc12 [Compound 81]

>  <Units symbol>
%

>  <inhibition at 1 µM>
98

$$$$
>  <Compound>
O=S(=O)(NCCCN1CCC(c2noc3cc(F)ccc23)CC1)c1ccc2c(c1)OCO2 [Compound 354]

>  <Units symbol>
%

>  <inhibition at 1 µM>
86

$$$$
>  <Compound>
Cc1[nH]c2ccc(Cl)cc2c1C1=CCN(CCNS(=O)(=O)c2ccc(F)cc2)CC1 [Compound 449]

>  <Units symbol>
%

>  <inhibition at 1 µM>
93

$$$$
